Test system: MS2 coat protein
assay procedure: apparent KD of MS2 coat protein; designed switch direction (-1 OFF switch, 1 ON switch): -1; higher = weaker reporter binding
measurement conditions: input ligand: none
This listing pairs sequences with measured apparent KD of MS2 coat protein.
measure name: apparent KD of MS2 coat protein

INSERT INTO assay_data (sequence_entry, target_or_test_system, experimental_result) VALUES
  ('CCGUCCUCAGUUAGGAUAUCUUCCGGAGAACGAAAGGAGAAGGAACAUGAGGAUCACCCAUGUGGCCCGAUGGA [Eternabot (Original) Solution 16] (Eterna round: R97, puzzle: Brourd''s mod of Exclusion 4)', 'MS2 coat protein', '29.3 nM'),
  ('GGUCGUCAAGUCAGGAUAUCGUUUGGUCGGUGUGACGAGAAGGGACAUGAGGAUCACCCAUGUCGUCUCAUCAG [Ex4 #29] (Eterna round: R97, puzzle: Brourd''s mod of Exclusion 4)', 'MS2 coat protein', '30.8 nM'),
  ('GCUAGGAGUGUGAGGAUAUGCUGAUCCUUGGAUCAGCAGAAGGCACAUGAGGAUCACCCAUGUGAAGACCUAGC [Mat - Exclusion 4 - JL Mod - D2] (Eterna round: R97, puzzle: Brourd''s mod of Exclusion 4)', 'MS2 coat protein', '30 nM');
